Hello, the source for this data is PubChem BioAssay (NCATS), in case you need it.

system: CP256; experiment: qHTS profiling for inhibitors of Plasmodium falciparum proliferation (AID 504749); also: nearly all actives have a fitted effect of over 60% in size; conditions: P. falciparum in erythrocytes, SYBR Green DNA, 72 h; series mostly up to 28.7 µM
Results filed as inconclusive are left out. Active and inactive are the calls of the source. Calls follow the shape of the dose curve; as a rule, active = well fitted inhibition curve with a large enough effect; inconclusive = small, poorly fitted or top-dose-only effect; inactive = flat fitted curve, though single readings scatter.
Permitted responses: Y = active, N = inactive

Query :: Dear colleague, could you share the recorded outcome for COc1cc2c(c(OC)c1OC)-c1ccc(OC)c(=O)cc1[C@@H](NC(C)=O)CC2 when you have a moment?
Result :: N

Query :: Dear colleague, could you share the recorded outcome for CC(C)(Oc1ccc(C2CC2(Cl)Cl)cc1)C(=O)O (stereo unspecified) when you have a moment?
Result :: N

Query :: Dear colleague, could you share the recorded outcome for CCOC(=O)Nc1ccc(NCc2ccc(F)cc2)nc1N when you have a moment?
Result :: Y

Query :: Dear colleague, could you share the recorded outcome for Clc1ccc(C(c2ccccc2Cl)C(Cl)Cl)cc1 (stereo unspecified) when you have a moment?
Result :: N

Query :: Dear colleague, could you share the recorded outcome for CS(=O)(=O)Nc1ccc([N+](=O)[O-])cc1Oc1ccccc1 when you have a moment?
Result :: N

Query :: Dear colleague, could you share the recorded outcome for CC(C)NCC(O)c1ccc(O)c(O)c1 (stereo unspecified) when you have a moment?
Result :: N

====

Test system: DIV17
Test: qHTS profiling for inhibitors of Plasmodium falciparum proliferation (AID 504749); also: nearly all actives have a fitted effect of over 60% in size
Settings: P. falciparum in erythrocytes, SYBR Green DNA, 72 h; series mostly up to 28.7 µM
Protocol: NIH National Institute of Allergy and Infectious Diseases [NIAID] NIH Chemical Genomics Center [NCGC] […] Because mature erythrocytes lack DNA, only Plasmodium-derived DNA is detected. NCGC Assay Protocol Summary: The SYBR Green viability assay was adapted from a method described previously (Plouffe et al., 2008). […] The following morning, fluorescence intensity at 485(14) nm excitation and 535(25) nm emission wavelengths was measured on an EnVision (Perkin Elmer) plate reader. […]
Inconclusive results are not listed. Active and inactive are the calls of the source. Calls follow the shape of the dose curve; as a rule, active = well fitted inhibition curve with a large enough effect; inconclusive = small, poorly fitted or top-dose-only effect; inactive = flat fitted curve, though single readings scatter.
Permitted responses: YES (active), NO (inactive)

Completed entries (count: 3):
compound=NC12CC3CC(CC(C3)C1)C2 measurementtarget=DIV17 class=NO
compound=NC(=O)OCC(COC(N)=O)c1ccccc1 measurementtarget=DIV17 class=NO
compound=Cc1ccc(C(=O)Nc2ccc(S(=O)(=O)O)c3cc(S(=O)(=O)O)cc(S(=O)(=O)O)c23)cc1NC(=O)c1cccc(NC(=O)Nc2cccc(C(=O)Nc3cc(C(=O)Nc4ccc(S(=O)(=O)O)c5cc(S(=O)(=O)O)cc(S(=O)(=O)O)c45)ccc3C)c2)c1 measurementtarget=DIV17 class=NO

Read the next record carefully.
Query :: Dear colleague, could you share the recorded outcome for CN(CCOc1ccc(NS(C)(=O)=O)cc1)CCc1ccc(NS(C)(=O)=O)cc1 when you have a moment?
Result :: NO

====

tested on: Tov-21-G; assay: Primary qHTS to identify gynecologic anti-cancer compounds using libraries of approved drugs and bioactive compounds (AID 1345084); conditions: Gynecologic cancer cell panel viability, ATPlite luminescence, 48 h; series mostly up to 57.5 µM; also: nearly all actives have a fitted effect of over 55% in size
Inconclusive results are not listed. Active and inactive are the calls of the source. Calls come from the whole dose curve; as a rule, active = well fitted cell-killing curve with a large enough effect; inconclusive = small, poorly fitted or top-dose-only effect, or effect the other way; inactive = flat fitted curve, though single readings scatter.
testReadout: outcome

Example entries and their recorded answers appear below.
compound=COc1nc(C)nc(Cl)c1NC1=NCCN1 testreadout=outcome assayvalue=inactive
compound=CCOC(=O)C(C)(C)Oc1ccc(Cl)cc1 testreadout=outcome assayvalue=inactive
compound="NC(CO)C(=O)NNCc1ccc(O)c(O)c1O (stereo unspecified)" testreadout=outcome assayvalue=inactive
compound=Cn1c(=O)c2[nH]cnc2n(C)c1=O testreadout=outcome assayvalue=inactive
compound=CC(=O)OCC(CCn1cnc2cnc(N)nc21)COC(C)=O testreadout=outcome assayvalue=inactive

Moving on to the next compound.
Query :: Test system Tov-21-G; read-out outcome; what value for CC[N+](CC)(CC)CCOc1cccc(OCC[N+](CC)(CC)CC)c1OCC[N+](CC)(CC)CC ?
Result :: inactive

====

assay: Quantitative High-Throughput drug screen in 47 multiple myeloma cell lines against the NCATS MIPE library collection: ARD_JJKsccE7 cell viability assay (AID 1918929; also: potency is read from the fitted curve at half-maximal effect;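 as to viability: 100% = DMSO-only wells and 0% = media-only wells without cells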); details: ARD myeloma cell line viability, CellTiter-Glo, 48 h; series mostly up to 45.8 µM
Results filed as inconclusive are left out. Calls of active or inactive are those of the source. Calls come from the whole dose curve; as a rule, active = well fitted cell-killing curve with a large enough effect; inconclusive = small, poorly fitted or top-dose-only effect, or effect the other way; inactive = no such curve, though single readings can be large or run the other way.
testReadout: Potency

Example entries and their recorded answers appear below.
molecule="CC1COc2c(N3CCN(C)CC3)c(F)cc3c(=O)c(C(=O)O)cn1c23 (stereo unspecified)" assayvalue=inactive
molecule=O=C(CCCN1CCC(O)(c2ccc(Cl)cc2)CC1)c1ccc(F)cc1 assayvalue="16.6 µM (active)"
molecule=Cc1cc(C(C)(C)C)cc(C)c1CC1=NCCN1 assayvalue=inactive
molecule=CCC1(c2ccccc2)C(=O)NCNC1=O assayvalue="14.8 µM (active)"
molecule=CC12CC3CC(C)(C1)CC(N)(C3)C2 assayvalue=inactive
molecule=Nc1c2c(nc3ccccc13)CCCC2 assayvalue=inactive
molecule=Nc1ccn([C@H]2CC[C@@H](CO)O2)c(=O)n1 assayvalue=inactive
molecule="CC(CCc1ccc(O)cc1)NCCc1ccc(O)c(O)c1 (stereo unspecified)" assayvalue="16.6 µM (active)"
molecule=NC(=O)NO assayvalue="0.235 µM (active)"
molecule="NC(CO)C(=O)NNCc1ccc(O)c(O)c1O (stereo unspecified)" assayvalue=inactive

Query :: Data request, read-out Potency, for Cc1cnc(C(=O)NCCc2ccc(S(=O)(=O)NC(=O)NC3CCCCC3)cc2)cn1
Result :: inactive

Query :: Data request, read-out Potency, for COc1ccc(C2CNC(=O)C2)cc1OC1CCCC1 (stereo unspecified)
Result :: inactive

Query :: Data request, read-out Potency, for CCOC(=O)c1ncn2c1CN(C)C(=O)c1cc(F)ccc1-2
Result :: inactive

Query :: Data request, read-out Potency, for CCOC(=O)Nc1ccc(NCc2ccc(F)cc2)nc1N
Result :: 18.7 µM (active)

Query :: Data request, read-out Potency, for CC(C)(C)C(=O)Oc1ccc(S(=O)(=O)Nc2ccccc2C(=O)NCC(=O)O)cc1
Result :: inactive

Query :: Data request, read-out Potency, for O=c1c(-c2ccc(O)cc2)coc2cc(O)cc(O)c12
Result :: 14.8 µM (active)

====

experiment: qHTS Assay for Identification of Small Molecule Antagonists for Thrombopoietin (TPO) Signaling Pathway (AID 918); conditions: TPO-dependent cell signaling reporter, antagonist mode; also: potency is read from the fitted curve at half-maximal effect; nearly all actives have a fitted effect of over 60% in size
Results filed as inconclusive are left out. Calls of active or inactive are those of the source. The call rests on the fitted dose curve; in most records, active means well fitted inhibition curve with a large enough effect; inconclusive means small, poorly fitted or top-dose-only effect, or effect the other way, or another doubt; inactive means flat fitted curve, though single readings scatter.
testReadout: Potency

Example entries and their recorded answers appear below.
chemicalsmiles=Clc1ccc2c(c1)C(N1CCNCC1)=Nc1ccccc1O2 assayvalue="10 µM (active)"
chemicalsmiles=Fc1ccc([C@@H]2CCNC[C@H]2COc2ccc3c(c2)OCO3)cc1 assayvalue="12.6 µM (active)"
chemicalsmiles=Clc1ccccc1C(c1ccccc1)(c1ccccc1)n1ccnc1 assayvalue="12.6 µM (active)"

Moving on to the next compound.
Query :: Data request, read-out Potency, for O=C(c1ccc(OCCN2CCCCC2)cc1)c1c(-c2ccc(O)cc2)sc2cc(O)ccc12
Result :: 15.8 µM (active)

====

Test: qHTS for Inhibitors of ATXN expression: Validation (AID 588378); also: nearly all actives have a fitted effect of over 75% in size
Conditions: cell-based ATXN2 expression reporter assay, luminescence; series mostly up to 57.1 µM
Description: Spinocerebellar ataxia type 2 (SCA2) is a multisystem neurodegenerative disease caused by a dominantly-acting mutation leading to expansion of a polyQ domain in the ataxin-2 protein (ATXN2). SCA2 patients develop progressive ataxia and later lose function in other neuronal systems. Prominent parkinsonian signs develop in some patients. Similar to many neurodegenerative disorders, no symptomatic or disease-modifying treatments are known. […]
Records with an inconclusive call do not appear. Active and inactive are the calls of the source. Calls follow the shape of the dose curve; as a rule, active = well fitted inhibition curve with a large enough effect; inconclusive = small, poorly fitted or top-dose-only effect; inactive = no such curve, though single readings can be large or run the other way.
Permitted responses: 1 = active, -1 = inactive

Completed entries (count: 5):
molecule=OCCN(CCO)c1nc(N2CCCCC2)c2nc(N(CCO)CCO)nc(N3CCCCC3)c2n1 class=-1
molecule=Cn1c(=O)c2[nH]cnc2n(C)c1=O class=-1
molecule=COc1cc2c(c(OC)c1OC)-c1ccc(OC)c(=O)cc1[C@@H](NC(C)=O)CC2 class=-1
molecule=COc1ccc2[nH]cc(CCNC(C)=O)c2c1 class=-1
molecule=Cc1cn([C@H]2C[C@H](N=[N+]=[N-])[C@@H](CO)O2)c(=O)[nH]c1=O class=-1

Query :: Dear colleague, could you share the recorded outcome for Cn1ccc2cc3c(cc21)CCN3C(=O)Nc1cccnc1 when you have a moment?
Result :: -1

Query :: Dear colleague, could you share the recorded outcome for Clc1ccccc1C(c1ccccc1)(c1ccccc1)n1ccnc1 when you have a moment?
Result :: 1

Query :: Dear colleague, could you share the recorded outcome for CN(C)c1nc(N(C)C)nc(N(C)C)n1 when you have a moment?
Result :: -1

Query :: Dear colleague, could you share the recorded outcome for CC(COc1ccccc1)N(CCCl)Cc1ccccc1 (configuration not stated) when you have a moment?
Result :: -1

Query :: Dear colleague, could you share the recorded outcome for CN1C2CCC1CC(OC(=O)C(CO)c1ccccc1)C2 (configuration not stated) when you have a moment?
Result :: -1

Query :: Dear colleague, could you share the recorded outcome for Nc1nnc(-c2cccc(Cl)c2Cl)c(N)n1 when you have a moment?
Result :: -1

Query :: Dear colleague, could you share the recorded outcome for CC(C)NCC(O)c1ccc(O)c(O)c1 (configuration not stated) when you have a moment?
Result :: -1
